# TARGET: HLA-A*02:16
# ASSAY_INFO: IEDB peptide-MHC binding, purified MHC/direct/fluorescence; filed as Kd, often an IC50 or EC50 that approximates it; bounds were set here for any values at or beyond the usual limits of such assays
# APPLIED_CONDITIONS: source organism: Burkholderia mallei ATCC 23344

{"SEQUENCE_INPUT": "LARFPCNVI", "Kd": "≥ 20 µM"}

---

# TARGET: HLA-A*24:02
# ASSAY_INFO: IEDB peptide-MHC binding, purified MHC/competitive/fluorescence; filed as Kd, often an IC50 or EC50 that approximates it; bounds were set here for any values at or beyond the usual limits of such assays
# APPLIED_CONDITIONS: source organism: Salmonella enterica subsp. enterica serovar Typhi

{"SEQUENCE_INPUT": "TLMFGFFGF", "Kd": "≥ 5 µM"}

Every entry's value here was drawn from the Immune Epitope Database (IEDB).
